# runDescription: physchem
# studyConditions: acetonitrile/water mixture
# Description: Solubility of the compound in acetonitrile/water mixture at 10 mM measured after 24 by HPLC-UV method
So basically: solubility at 10000 µM at 40 µg/mL or higher? That is class 1. Lower than 40 µg/mL? That is class 0.

{"compound": "CS(=O)(=O)NC(=O)c1ccc(C(F)(F)F)cc1", "label": "class 1"}
{"compound": "CC(=O)N(C)c1ccc(C(F)(F)F)cc1", "label": "class 1"}
{"compound": "C[S+]([O-])Cc1ccc(C(F)(F)F)cc1 (stereo not drawn)", "label": "class 1"}
{"compound": "O=S1(=Nc2ccccc2)CCCCC1", "label": "class 0"}
{"compound": "O=S1(=Nc2ccc(C(F)(F)F)cc2)CCC1", "label": "class 1"}
{"compound": "C[S@@](=O)(=Nc1ccc(C(F)(F)F)cc1)c1ccccc1", "label": "class 0"}
{"compound": "CN=S(C)(=O)c1ccc(C(F)(F)F)cc1 (stereo not drawn)", "label": "class 1"}
{"compound": "COc1ccc(N=S2(=O)CCCCC2)cc1", "label": "class 1"}
{"compound": "CS(C)(=N)=Nc1ccc(C(F)(F)F)cc1", "label": "class 1"}
{"compound": "CC(=O)Nc1ccc(C(F)(F)F)cc1", "label": "class 0"}
{"compound": "CS(=O)(=O)NC(=O)Nc1ccc(C(F)(F)F)cc1", "label": "class 1"}
{"compound": "N=S1(=Nc2ccc(C(F)(F)F)cc2)CCCCC1", "label": "class 1"}
